- systemTested: human TrkA receptor (Homo sapiens (Human), UniProt P04629)
- Sequence (P04629 33-796): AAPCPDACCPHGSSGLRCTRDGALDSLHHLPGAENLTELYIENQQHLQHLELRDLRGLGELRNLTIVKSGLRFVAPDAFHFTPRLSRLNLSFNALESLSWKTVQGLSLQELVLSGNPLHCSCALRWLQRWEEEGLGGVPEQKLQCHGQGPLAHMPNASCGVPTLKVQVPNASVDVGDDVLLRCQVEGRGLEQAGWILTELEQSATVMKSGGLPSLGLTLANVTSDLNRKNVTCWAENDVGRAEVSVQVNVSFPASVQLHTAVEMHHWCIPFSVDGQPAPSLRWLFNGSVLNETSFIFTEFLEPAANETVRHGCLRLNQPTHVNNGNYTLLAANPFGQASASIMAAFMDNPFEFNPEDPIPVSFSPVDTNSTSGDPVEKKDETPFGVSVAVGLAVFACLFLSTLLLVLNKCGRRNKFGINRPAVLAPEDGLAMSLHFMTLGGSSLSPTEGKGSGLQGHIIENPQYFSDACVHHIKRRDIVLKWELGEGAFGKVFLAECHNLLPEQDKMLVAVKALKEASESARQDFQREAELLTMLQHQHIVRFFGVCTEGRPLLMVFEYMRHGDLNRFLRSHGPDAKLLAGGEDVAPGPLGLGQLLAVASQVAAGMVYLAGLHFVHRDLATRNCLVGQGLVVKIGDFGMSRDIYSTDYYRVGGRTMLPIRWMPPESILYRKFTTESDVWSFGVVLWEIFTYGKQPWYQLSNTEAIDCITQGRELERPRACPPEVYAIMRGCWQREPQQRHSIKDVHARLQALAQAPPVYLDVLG
- assayInfo: DiscoverX PathHunter TrkA functional assay (NGF-stimulated U2OS cells)
- Type: cell-based
- reportedConditions: U2OS cells expressing human TrkA-PK, Shc1-EA and p75NTR; compound 1 h, then NGF at ~80% of maximal response for 3 h; luminescence
pIC50: −log10 of the molar value.
# Lookup of reported pIC50 keyed by entry
measuredQuantity: pIC50

>>> df
                                    compound                              systemtested  numericreadout
 0  Cn1ccc(-c2cc(C(=O)Nc3cnc(CCN4CCOCC4)nc3-c3ccccc3)ccc2C(F)(F)F)n1 [Example 38]  human TrkA receptor (Homo sapiens (Human), UniProt P04629)            7.60
 1  Cc1ncc(NC(=O)c2ccc(C(F)(F)F)c(-c3ccn(C)n3)c2)c(-c2cccc(CO)c2)n1 [Example 44]  human TrkA receptor (Homo sapiens (Human), UniProt P04629)            7.70
 2  Cn1ccc(-c2cc(C(=O)Nc3cc4c(nc3-c3ccccc3)CCN(CC(=O)O)C4)ccc2C(F)(F)F)n1 [Example 157]  human TrkA receptor (Homo sapiens (Human), UniProt P04629)            7.64
 3  Cc1ncc(NC(=O)c2cc(C3CCC(C)O3)c(C(F)(F)F)cc2F)c(-c2ccccc2)n1 (stereo not shown) [Example 33]  human TrkA receptor (Homo sapiens (Human), UniProt P04629)            7.25
 4  Cn1ccc(-c2cc(C(=O)Nc3cnc(CNC(=O)[C@@H]4COCCN4)nc3-c3ccccc3)c(F)cc2C(F)(F)F)n1 [Example 74]  human TrkA receptor (Homo sapiens (Human), UniProt P04629)            8.70
 5  Cn1ccc(-c2cc(C(=O)Nc3cnc(CC4CC(=O)NC4=O)nc3-c3ccccc3)c(F)cc2C(F)(F)F)n1 (stereo not shown) [Example 201]  human TrkA receptor (Homo sapiens (Human), UniProt P04629)            8.55
 6  Cn1ccc(-c2cc(C(=O)Nc3cnc(CNC(=O)C(C)(N)CO)nc3-c3ccccc3)c(F)cc2C(F)(F)F)n1 (single isomer, unassigned) [Example 66]  human TrkA receptor (Homo sapiens (Human), UniProt P04629)            8.92
 7  C[C@H](O)C(=O)NCc1ncc(NC(=O)c2cc(-c3ccn(C)n3)c(C(F)(F)F)cc2F)c(-c2ccccc2)n1 [Example 48]  human TrkA receptor (Homo sapiens (Human), UniProt P04629)            8.96
 8  O=C(Nc1ccccc1-c1ccc(F)cc1)c1ccc(C(F)(F)F)cc1F [Example 6]  human TrkA receptor (Homo sapiens (Human), UniProt P04629)            5.31
 9  Cn1ccc(-c2cc(C(=O)Nc3cc4c(nc3-c3ccccc3)CCN(C(=O)CN)C4)ccc2C(F)(F)F)n1 [Example 156]  human TrkA receptor (Homo sapiens (Human), UniProt P04629)            9.00
10  O=C(Nc1cc(-c2csc(C3CC3)n2)cnc1N1CCC[C@@H]1CO)c1cc(-c2ncccn2)c(C(F)(F)F)cc1F [Example 137]  human TrkA receptor (Homo sapiens (Human), UniProt P04629)            8.54
11  Cn1ccc(-c2cc(C(=O)Nc3ccc(C(C)(C)O)nc3-c3ccccc3)ccc2C(F)(F)F)n1 [Example 47]  human TrkA receptor (Homo sapiens (Human), UniProt P04629)            8.89
12  Cn1ccc(-c2cc(C(=O)Nc3cc(-c4ccc(C(N)=O)cn4)cnc3-c3ccccc3)c(F)cc2C(F)(F)F)n1 [Example 164]  human TrkA receptor (Homo sapiens (Human), UniProt P04629)            9.29
13  NC(=O)c1ncc(-c2cnc(-c3ccccc3)c(NC(=O)c3cc(-c4ncccn4)c(C(F)(F)F)cc3F)c2)cn1 [Example 175]  human TrkA receptor (Homo sapiens (Human), UniProt P04629)            7.91
14  Cn1ccc(-c2cc(C(=O)Nc3cc(C(N)=O)nnc3-c3ccccc3)c(F)cc2C(F)(F)F)n1 [Example 94]  human TrkA receptor (Homo sapiens (Human), UniProt P04629)            8.03
15  Cc1ncc(NC(=O)c2ccc(C(F)(F)F)c(-c3cc[nH]n3)c2)c(-c2ccccc2)n1 [Example 21]  human TrkA receptor (Homo sapiens (Human), UniProt P04629)            7.46

These data points were gathered from patent US9815846B2.
